Biological target: NR1/NR2B receptor (Rattus norvegicus, UniProt P35439+Q00960)
Construct: from tissue; host or cells: rat cerebral cortex membranes (male Slc: Wistar rat)
Sequence (Q00960 27-1482, other chains not shown): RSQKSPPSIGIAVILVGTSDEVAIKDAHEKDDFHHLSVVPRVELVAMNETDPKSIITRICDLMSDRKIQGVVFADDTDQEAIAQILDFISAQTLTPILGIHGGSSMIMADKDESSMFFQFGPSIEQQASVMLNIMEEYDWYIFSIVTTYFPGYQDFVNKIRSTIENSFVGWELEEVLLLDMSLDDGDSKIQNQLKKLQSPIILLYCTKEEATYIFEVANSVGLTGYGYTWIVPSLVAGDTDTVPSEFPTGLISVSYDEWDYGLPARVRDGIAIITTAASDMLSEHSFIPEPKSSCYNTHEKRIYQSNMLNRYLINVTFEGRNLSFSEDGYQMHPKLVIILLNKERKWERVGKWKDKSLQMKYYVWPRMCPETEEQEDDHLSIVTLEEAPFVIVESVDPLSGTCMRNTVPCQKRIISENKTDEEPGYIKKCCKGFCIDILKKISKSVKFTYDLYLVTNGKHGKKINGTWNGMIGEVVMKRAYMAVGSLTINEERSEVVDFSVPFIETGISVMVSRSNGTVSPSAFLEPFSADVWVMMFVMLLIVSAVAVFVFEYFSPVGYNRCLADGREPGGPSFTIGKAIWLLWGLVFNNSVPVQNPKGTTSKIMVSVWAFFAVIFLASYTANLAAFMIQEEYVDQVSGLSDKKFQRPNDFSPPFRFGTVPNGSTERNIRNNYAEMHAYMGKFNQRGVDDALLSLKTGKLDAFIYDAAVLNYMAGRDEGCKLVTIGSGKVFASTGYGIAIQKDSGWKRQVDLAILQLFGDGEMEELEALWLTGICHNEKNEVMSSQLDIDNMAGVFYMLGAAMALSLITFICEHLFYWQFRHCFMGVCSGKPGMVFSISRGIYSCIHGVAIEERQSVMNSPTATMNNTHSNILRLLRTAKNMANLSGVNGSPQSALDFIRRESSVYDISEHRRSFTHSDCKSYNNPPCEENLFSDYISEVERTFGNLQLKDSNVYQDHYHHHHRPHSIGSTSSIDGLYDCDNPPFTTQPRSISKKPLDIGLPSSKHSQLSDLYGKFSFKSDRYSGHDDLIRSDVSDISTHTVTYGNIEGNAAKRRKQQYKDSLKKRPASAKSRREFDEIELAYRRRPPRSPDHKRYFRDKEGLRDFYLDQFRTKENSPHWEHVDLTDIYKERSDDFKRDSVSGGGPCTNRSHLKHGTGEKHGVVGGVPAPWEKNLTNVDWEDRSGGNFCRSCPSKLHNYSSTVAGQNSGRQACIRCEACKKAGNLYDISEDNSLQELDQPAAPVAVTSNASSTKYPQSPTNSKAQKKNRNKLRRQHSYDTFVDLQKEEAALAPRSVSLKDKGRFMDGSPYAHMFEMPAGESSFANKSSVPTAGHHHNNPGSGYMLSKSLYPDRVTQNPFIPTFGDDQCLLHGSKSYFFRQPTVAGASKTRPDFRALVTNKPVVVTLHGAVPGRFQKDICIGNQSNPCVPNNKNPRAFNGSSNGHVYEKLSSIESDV
Assay: Test of binding with NMDA receptor (NR1/NR2B receptor): competition with [3H]-Ifenprodil on rat cerebral cortex membrane specimen
Details: [3H]-Ifenprodil 5 nM, GBR-12909 3 μM, rat cerebral cortex membranes, ice temperature 120 minutes; read-out: NR2B (IC50 μM)
Threshold 0.05 µM: IC50 strictly smaller gives yes, otherwise no.

INSERT INTO measurements (compound, target_of_assay, assigned_class) VALUES
  ('O=C(C=C1CCN(c2ccc(C(F)(F)F)cn2)CC1)Nc1ccc2[nH]c(=O)oc2c1 [Compound I-43]', 'NR1/NR2B receptor (Rattus norvegicus, UniProt P35439+Q00960)', 'yes'),
  ('O=C(NCCC1CCN(c2ccc(Br)cc2)CC1)c1ccc(=O)[nH]c1 [Compound I-5]', 'NR1/NR2B receptor (Rattus norvegicus, UniProt P35439+Q00960)', 'yes'),
  ('C[C@@H]1CN(c2ccc(Cl)cc2)CCN1C(=O)C(=O)Nc1ccc2[nH]c(=O)oc2c1 [Compound I-178]', 'NR1/NR2B receptor (Rattus norvegicus, UniProt P35439+Q00960)', 'yes'),
  ('O=C(Nc1cnc2[nH]c(=O)oc2c1)C(=O)N1CCN(c2ccc(Cl)c(Cl)c2)CC1 [Compound I-105]', 'NR1/NR2B receptor (Rattus norvegicus, UniProt P35439+Q00960)', 'yes'),
  ('O=C1Cc2cc(NC(=O)C(=O)N3CCN(c4ccc(Cl)c(F)c4)CC3)ccc2N1 [Compound I-200]', 'NR1/NR2B receptor (Rattus norvegicus, UniProt P35439+Q00960)', 'no'),
  ('O=C(NCCC1CCN(c2ccc(C(F)(F)F)cc2)CC1)c1ccc(=O)[nH]c1 [Compound I-2]', 'NR1/NR2B receptor (Rattus norvegicus, UniProt P35439+Q00960)', 'yes'),
  ('O=C(Nc1ccc2[nH]c(=O)oc2c1)C(=O)N1CCN(c2ccc(C(F)(F)F)c(F)c2)CC1 [Compound I-98]', 'NR1/NR2B receptor (Rattus norvegicus, UniProt P35439+Q00960)', 'yes'),
  ('O=C(C=C1CCN(c2ccc(F)c(F)c2)CC1)Nc1ccc2[nH]c(=O)oc2c1 [Compound I-192]', 'NR1/NR2B receptor (Rattus norvegicus, UniProt P35439+Q00960)', 'no'),
  ('O=C(CCC1CCN(c2ccc(C(F)(F)F)cc2)CC1)Nc1ccc(=O)[nH]c1 [Compound I-21]', 'NR1/NR2B receptor (Rattus norvegicus, UniProt P35439+Q00960)', 'no'),
  ('O=C(C=C1CCN(c2ccc(C(F)(F)F)c(F)c2)CC1)Nc1ccc2[nH]c(=O)oc2c1 [Compound I-180]', 'NR1/NR2B receptor (Rattus norvegicus, UniProt P35439+Q00960)', 'no'),
  ('O=C1Cc2cc(NC(=O)C(=O)N3CCN(c4ccc(C(F)(F)F)c(F)c4)CC3)ccc2N1 [Compound I-201]', 'NR1/NR2B receptor (Rattus norvegicus, UniProt P35439+Q00960)', 'no'),
  ('O=C(Nc1ccc2[nH]c(=O)[nH]c2c1)C(=O)N1CCN(c2ccc(F)cc2)CC1 [Compound I-85]', 'NR1/NR2B receptor (Rattus norvegicus, UniProt P35439+Q00960)', 'no'),
  ('O=C(C=C1CCN(c2ccc(Cl)c(Cl)c2)CC1)Nc1ccc2[nH]c(=O)oc2c1 [Compound I-184]', 'NR1/NR2B receptor (Rattus norvegicus, UniProt P35439+Q00960)', 'yes'),
  ('O=C(CC1(O)CCN(c2ccc(C(F)(F)F)cc2)CC1)Nc1ccc2[nH]c(=O)sc2c1 [Compound I-70]', 'NR1/NR2B receptor (Rattus norvegicus, UniProt P35439+Q00960)', 'no'),
  ('O=C(Nc1ccc2[nH]c(=O)oc2c1)NC1CCN(c2ccc(C(F)(F)F)cc2)CC1 [Compound I-23]', 'NR1/NR2B receptor (Rattus norvegicus, UniProt P35439+Q00960)', 'yes');
